Experiment: APR_HepG2_P-H2AX_72hr: Apredica 72-hour HepG2 Assay for H2AX Phosphorylation (AID 2282916);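 further: phospho-histone H2A.x immunostain intensity per cell marking DNA damage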
Conditions: imaging, actives raise or lower the signal
Active and inactive are the calls of the source. How the source made its calls: active means hit-call score of the fitted dose curve at least 0.9, where 1 is the maximum; inactive means score below 0.9.
Please state which outcome applies, choosing from true (1) = active, false (0) = inactive

molecule: NC=O
group-label: false (0)
//
molecule: CCCC[C@H]1CN(CC2CCOCC2)C(=O)OC12CCN(C1(C)CCN(C(=O)c3c(C)ncnc3C)CC1)CC2
group-label: false (0)
//
molecule: O=C1OC(c2ccc(O)cc2)(c2ccc(O)cc2)c2ccccc21
group-label: true (1)
//
molecule: CCCCCCCCCCCCCCCCO
group-label: false (0)
//
molecule: CCCCCCC(CCCCCCCCCCC(=O)OCC(COC(C)=O)OC(C)=O)OC(C)=O (stereo unspecified)
group-label: false (0)

GET /call?item= `Oc1ccccc1O` returns the recorded outcome of this test.
true (1)

GET /call?item= `Cc1cc(Cc2ccc(N)c(C)c2)ccc1N` returns the recorded outcome of this test.
false (0)

GET /call?item= `N[C@@H](Cc1c[nH]c2ccccc12)C(=O)O` returns the recorded outcome of this test.
false (0)

GET /call?item= `CCc1nc(N)nc(N)c1-c1ccc(Cl)cc1` returns the recorded outcome of this test.
true (1)

GET /call?item= Cc1c(C)c2c(c(C)c1O)CCC(C)(COc1ccc(CC3SC(=O)NC3=O)cc1)O2 (stereo unspecified) returns the recorded outcome of this test.
true (1)

====

Experiment: CEETOX_H295R_MTT_cell_viability: Viability Assessment in the CeeTox HT-H295R MTT Assay (AID 2283718);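 on AC50: curve fitted both ways so AC50 may mark viability loss or gain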
Active and inactive are the calls of the source. The calls were made as follows: active = hit-call score of the fitted dose curve at least 0.9, where 1 is the maximum; inactive = score below 0.9.
measure: AC50

compound: COc1ccc(C(=O)Nc2nc3ccccc3c(NCc3ccccc3)c2C#N)cc1
AC50: 909 nM (active)
//
compound: Nc1nc(=S)c2[nH]cnc2[nH]1
AC50: 2520 nM (active)
//
compound: NC(=Nc1ccccc1)Nc1ccccc1
AC50: inactive
//
compound: O=C(Oc1ccccc1)c1cccc(C(=O)Oc2ccccc2)c1
AC50: inactive
//
compound: O=C1OC(c2ccc(O)cc2)(c2ccc(O)cc2)c2ccccc21
AC50: inactive

Measured AC50, `CC(=O)[C@@]1(O)CC[C@H]2[C@@H]3CCC4=CC(=O)CC[C@]4(C)[C@H]3CC[C@@]21C` : inactive

Measured AC50, `CCCCCCCCCC[N+](C)(C)[O-]` : inactive

Measured AC50, `CC(C)(O)c1ccc(CNC(=O)c2cccnc2Oc2ccc(F)cc2)cc1` : inactive

====

Read-out: Signal transducer and activator of transcription 3 (Homo sapiens) (UniProt P40763)
Sequence (P40763 whole entry, looked up): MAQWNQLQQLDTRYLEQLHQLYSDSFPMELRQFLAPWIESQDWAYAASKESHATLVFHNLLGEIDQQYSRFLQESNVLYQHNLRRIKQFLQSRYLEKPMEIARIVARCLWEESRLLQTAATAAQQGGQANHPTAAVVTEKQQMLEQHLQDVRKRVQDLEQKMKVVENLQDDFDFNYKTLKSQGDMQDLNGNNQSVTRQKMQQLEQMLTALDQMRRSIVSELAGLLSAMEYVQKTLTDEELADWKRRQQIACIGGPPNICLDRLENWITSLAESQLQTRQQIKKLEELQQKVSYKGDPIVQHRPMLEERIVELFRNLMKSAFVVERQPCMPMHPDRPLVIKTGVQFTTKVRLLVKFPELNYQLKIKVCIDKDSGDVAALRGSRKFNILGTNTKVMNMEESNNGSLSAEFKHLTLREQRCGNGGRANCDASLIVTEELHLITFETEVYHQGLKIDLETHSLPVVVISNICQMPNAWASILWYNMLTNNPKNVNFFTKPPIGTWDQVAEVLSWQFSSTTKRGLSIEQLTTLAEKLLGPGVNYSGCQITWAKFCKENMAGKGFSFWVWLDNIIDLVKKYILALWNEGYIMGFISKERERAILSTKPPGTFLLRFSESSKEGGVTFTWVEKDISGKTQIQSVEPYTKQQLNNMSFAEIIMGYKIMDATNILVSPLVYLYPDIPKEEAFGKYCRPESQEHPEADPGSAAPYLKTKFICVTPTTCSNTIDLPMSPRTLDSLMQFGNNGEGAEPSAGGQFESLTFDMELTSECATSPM
Experiment: LTEA_HepaRG_STAT3: Life Technologies and Expression Analysis (LTEA) Assay for Signal transducer and activator of transcription (STAT3) using HepaRG (AID 2283529)
Settings: mRNA level, 48 h; actives raise or lower the signal
Method: LTEA_HepaRG is a cell based, multiplexed-readout assay that uses HepaRG, a human liver cell line, with measurements taken at 48 hours after chemical dosing on a 96-well plate.LTEA_HepaRG_STAT3 is one of 102 assay component(s) measured in the LTEA HepaRG cell culture assay. It is a marker of Cell proliferation, survival, death.Data from the assay component LTEA_HepaRG_STAT3 was analyzed into 1 endpoint. […]
Calls of active or inactive are those of the source. How the source made its calls: active means hit-call score of the fitted dose curve at least 0.9, where 1 is the maximum; inactive means score below 0.9.
measure: outcome

molecule: CCCCCCC(C=O)=Cc1ccccc1
measure: outcome
observed: inactive
--
molecule: COC(=O)CCCC(=O)OC
measure: outcome
observed: inactive
--
molecule: CCCCCCCCCCCCCCOS(=O)(=O)O
measure: outcome
observed: inactive
--
molecule: S=c1[nH]c2ccccc2s1
measure: outcome
observed: inactive
--
molecule: CC(C)OC(=O)C(C)(C)Oc1ccc(C(=O)c2ccc(Cl)cc2)cc1
measure: outcome
observed: inactive
--
molecule: CCCCC(CC)COC(=O)CCCCCCCC(=O)OCC(CC)CCCC (configuration not stated)
measure: outcome
observed: inactive

Turning now to a further record.
Measured outcome, CCCCCCC(CCCCCCCCCCC(=O)OCC(COC(C)=O)OC(C)=O)OC(C)=O (configuration not stated) : inactive
